All figures here come from ChEMBL document CHEMBL5500324.

test system: P388; test: Cytotoxicity against mouse P388 cells assessed as inhibition of cell growth incubated for 72 hrs by MTT assay; format: functional, cell-based; settings: P388, 72 h
OBSERVATION TYPE: pIC50
Interpret pIC50 as the negative base-10 log of the concentration measured in mol/L.

Query: What value of measured pIC50 is listed for CSC12NC(=O)C(Cc3ccc(OCC=C(C)C)cc3)(NC1=O)[C@H]1C(=O)O[C@H](C)C/C=C/C(=O)O[C@H](C)C[C@@H](O)C(=O)[C@H]12 (stereo partly specified) ?
Response: 5.17

* * *

Entries and their IC50 values follow.
tested on: U-937; assay: Cytotoxicity against human U-937 cells assessed as reduction in cell viability; format: functional, cell-based

>>> print(df.to_string())
                                   compound  observation_type   value
0  CS[C@]1(CO)C(=O)N2C3C(=CC=CC3O)C[C@@]2(SC)C(=O)N1C (some centres not stated)              IC50  520 nM

Query: For the compound shown here, CN1C(=O)[C@]23CC4=CC=C[C@H](O)[C@H]4N2C(=O)[C@@]1(CO)SS3 [GLIOTOXIN] , give the reported IC50.
Response: 200 nM

* * *

system: A549; assay: Cytotoxicity against human A549 cells assessed as inhibition of cell growth incubated for 48 hrs by MTT assay; type: functional, cell-based; settings: A549, 48 h
OBSERVATION TYPE: IC50 (µM)
Reply with just the number (in µM).

Query: What does the record list as IC50 for CN1C[C@@H](c2c[nH]c3cc(Br)ccc23)N(C)C[C@@H]1c1c[nH]c2ccccc12 ?
Response: 4.1

* * *

system: NCI-H23; test: Cytotoxicity against human NCI-H23 cells assessed as reduction in cell viability incubated for 48 hrs by MTT assay; type: functional, cell-based; conditions: NCI-H23, 48 h
OBSERVATION TYPE: pIC50
Units for pIC50: none; it is -log10 of a concentration expressed in mol/L.

Query: Form field: reported pIC50 of COC1=C(C)C(=O)C2=C(C1=O)[C@@H]1[C@@H]3CC4=C(C(=O)C(OC)=C(C)C4=O)[C@H](CO)N3[C@@H](C#N)[C@H](C2)N1C
Response: 5.64

* * *

system: K562; assay: Cytotoxicity against human K562 cells assessed as cell growth inhibition by MTT assay; assay type: functional, cell-based
OBSERVATION TYPE: IC50 (nM)
Express the result in nM but write the number alone.

Please review the following examples before continuing.
COMPOUND	EXPERIMENTAL TARGET	VALUE
CN1C(=O)[C@]23SSS[C@]1(CO)C(=O)N2[C@H]1Nc2ccccc2C1(C12c4ccccc4N[C@H]1N1C(=O)[C@@]4(CO)SSS[C@]1(C(=O)N4C)[C@H]2O)[C@@H]3O (stereo partly drawn)	K562	1000
CN1C(=O)[C@]23SSS[C@]1(C)C(=O)N2[C@@H]1Nc2ccccc2C1(C12c4ccccc4N[C@@H]1N1C(=O)[C@@]4(CO)SSS[C@]1(C(=O)N4C)[C@H]2O)[C@@H]3O (stereo partly drawn)	K562	400

Query: Return reported IC50; argument: CN1C(=O)[C@]23SSS[C@]1(CO)C(=O)N2[C@H]1Nc2ccccc2C1(C12c4ccccc4N[C@H]1N1C(=O)[C@@]4(CO)SSSS[C@]1(C(=O)N4C)[C@H]2O)[C@@H]3O (stereo partly drawn)
Response: 1900
